measuredOn: neutrophil elastase (Homo sapiens)
Sequence (P08246 30-247 limits assumed): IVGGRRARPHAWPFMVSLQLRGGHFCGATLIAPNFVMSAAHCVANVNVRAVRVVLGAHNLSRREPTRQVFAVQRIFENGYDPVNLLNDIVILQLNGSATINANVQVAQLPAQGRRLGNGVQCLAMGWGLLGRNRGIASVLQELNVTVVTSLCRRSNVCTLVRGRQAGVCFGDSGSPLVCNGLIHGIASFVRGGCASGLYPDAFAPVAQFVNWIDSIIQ
assayOverview: Human Neutrophil Elastase Assay
measurementParameters: substrate MeOSuc-Ala-Ala-Pro-Val-AMC, pH 7.5, room temperature
observedProperty: IC50 (nM)

# annotated cases, reported IC50 shown
CCCS(=O)(=O)N1C(=O)N(c2cccc(C(F)(F)F)c2)C2=C(C(=O)CCC2)C1c1ccc(C#N)cc1 (centres unmarked)
3
N#Cc1ccc(C2C3=C(CCCC3=O)N(c3cccc(C(F)(F)F)c3)C(=O)N2CC(=O)N2CCc3[nH]c(=O)ccc3C2)cc1 (centres unmarked)
2.2
COc1cc(C#N)ccc1C1NC(=O)N(c2cccc(C(F)(F)F)c2)C2=C1C(=O)CCC2 (centres unmarked)
34

I: COCCOC(=O)N1C(=O)N(c2cccc(C(F)(F)F)c2)C2=C(C(=O)CCC2)C1c1ccc(C#N)cc1 (centres unmarked)
II: N#Cc1ccc(C2C3=C(CCCC3=O)N(c3cccc(C(F)(F)F)c3)C(=O)N2Cc2ccc(C(=O)O)o2)cc1 (centres unmarked)
Look at I and II . Which one has the lower recorded IC50 number? Output the label that corresponds to your choice. I

A: CS(=O)(=O)N1C(=O)N(c2cccc(C(F)(F)F)c2)C2=C(C(=O)CCC2)C1c1ccc(C#N)cc1 (centres unmarked)
B: Cn1ccc(S(=O)(=O)N2C(=O)N(c3cccc(C(F)(F)F)c3)C3=C(C(=O)CCC3)C2c2ccc(C#N)cc2)n1 (centres unmarked)
From the recorded data, which exceeds the other in IC50: A or B ? Output the label that corresponds to your choice. B

a: N#Cc1ccc(C2C3=C(CCCC3=O)N(c3cccc(C(F)(F)F)c3)C(=O)N2CC2CCOC2)cc1 (centres unmarked)
b: CN1C(=O)N(c2cccc(C(F)(F)F)c2)C2=C(C(=O)CCC2)[C@H]1c1ccc(C#N)cc1S(C)(=O)=O
From the recorded data, which exceeds the other in IC50: a or b ? Output the label that corresponds to your choice. a
